Subject of test: T1, Bcat-Halo (beta-catenin HaloTag construct transfected into HEK293 cells) (UniProt P35222 1-781)
T1 sequence (looked up): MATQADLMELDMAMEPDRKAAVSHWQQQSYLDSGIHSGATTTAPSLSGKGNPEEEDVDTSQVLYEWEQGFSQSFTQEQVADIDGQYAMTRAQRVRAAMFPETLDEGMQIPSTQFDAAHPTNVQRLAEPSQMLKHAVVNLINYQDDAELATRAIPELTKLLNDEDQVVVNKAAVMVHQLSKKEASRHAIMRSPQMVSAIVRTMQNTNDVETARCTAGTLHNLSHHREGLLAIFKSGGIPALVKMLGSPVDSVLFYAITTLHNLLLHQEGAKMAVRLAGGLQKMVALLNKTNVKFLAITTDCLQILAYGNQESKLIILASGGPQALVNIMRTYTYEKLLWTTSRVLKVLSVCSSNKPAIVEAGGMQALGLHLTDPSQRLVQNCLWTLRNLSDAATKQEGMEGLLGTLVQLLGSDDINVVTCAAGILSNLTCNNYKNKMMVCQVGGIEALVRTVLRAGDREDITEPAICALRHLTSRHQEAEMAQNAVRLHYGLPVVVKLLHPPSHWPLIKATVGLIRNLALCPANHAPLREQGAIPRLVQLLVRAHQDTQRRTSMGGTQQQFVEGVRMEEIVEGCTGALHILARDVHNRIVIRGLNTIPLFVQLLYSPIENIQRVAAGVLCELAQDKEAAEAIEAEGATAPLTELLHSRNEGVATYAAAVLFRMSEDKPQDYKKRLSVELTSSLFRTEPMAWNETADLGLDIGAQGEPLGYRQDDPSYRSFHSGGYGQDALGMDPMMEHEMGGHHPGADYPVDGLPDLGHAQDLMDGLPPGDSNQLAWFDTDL
Test protocol: cell-based or functional assay
Starred links: 1 amine or outer side, 2 acyl side, 3 side chain; linkers in the order of their positions; H or OH if unused. Positions of bridges follow the written chain, without caps; N, C: chain ends. Non-standard residues stand in square brackets, D forms with d. Groups on a side chain read outwards from the residue. Primed or numbered codes have the meaning given here. *: point of attachment. PyrS2″ = (S)-3-amino-1-((pent-4-en-1-yloxy)carbonyl)pyrrolidine-3-carboxylic acid (stapling residue), C=CCCCOC(=O)N1CC[C@@](N[*:1])(C(=O)[*:2])C1; B5(4) = 2,2-bis(4-pentenyl)glycine = 2-amino-2-(pent-4-en-1-yl)hept-6-enoic acid (stitching residue), C=CCCCC(CCCC=C)(N[*:1])C(=O)[*:2]; PyrS2 = (S)-3-amino-1-((pent-4-en-1-yloxy)carbonyl)pyrrolidine-3-carboxylic acid, C=CCCCOC(=O)N1CC[C@@](N[*:1])(C(=O)[*:2])C1; B5(3) = 2,2-bis(4-pentenyl)glycine (stitching residue), C=CCCCC(CCCC=C)(N[*:1])C(=O)[*:2]; Me3AdamantC = 3,5,7-trimethyladamantane-1-carbonyl, CC12CC3(C)CC(C)(C1)CC(C(=O)*)(C2)C3; Bta = N[C@@H](Cc1csc2ccccc12)C(=O)O; αAllylPro = C=CC[C@@]1(C(=O)O)CCCN1; tBuAla = CC(C)(C)C[C@H](N)C(=O)O; 3Thi = N[C@@H](Cc1ccsc1)C(=O)O; PEG2′ = not defined here
In this section we review reported NanoBRET Abs IC50 values for a set of binders.

Binder	NanoBRET Abs IC50
Ac-[αAllylPro]DK(Me3AdamantC)[B5(4)]DDAAFL[PyrS2][3Thi][Bta]Q-NH2 (staple 1-4, 4-11) [I-1471]	> 20 µM
Ac-[αAllylPro]D[tBuAla][B5(3)]DDAAFL[PyrS2″][3Thi][Bta]QK([PEG2′-Me3AdamantC])-NH2 (staple 1-4, 4-11) [I-1480]	9.3 µM
Ac-[αAllylPro]DK([PEG2′-Me3AdamantC])[B5(4)]DDAAFL[PyrS2][3Thi][Bta]Q-NH2 (staple 1-4, 4-11) [I-1472]	> 20 µM

Cited source for all entries: patent US20240116985A1
